TARGET_ENTITY: Adenosine receptor A2a (Homo sapiens, UniProt P29274)
Sequence (P29274 whole entry): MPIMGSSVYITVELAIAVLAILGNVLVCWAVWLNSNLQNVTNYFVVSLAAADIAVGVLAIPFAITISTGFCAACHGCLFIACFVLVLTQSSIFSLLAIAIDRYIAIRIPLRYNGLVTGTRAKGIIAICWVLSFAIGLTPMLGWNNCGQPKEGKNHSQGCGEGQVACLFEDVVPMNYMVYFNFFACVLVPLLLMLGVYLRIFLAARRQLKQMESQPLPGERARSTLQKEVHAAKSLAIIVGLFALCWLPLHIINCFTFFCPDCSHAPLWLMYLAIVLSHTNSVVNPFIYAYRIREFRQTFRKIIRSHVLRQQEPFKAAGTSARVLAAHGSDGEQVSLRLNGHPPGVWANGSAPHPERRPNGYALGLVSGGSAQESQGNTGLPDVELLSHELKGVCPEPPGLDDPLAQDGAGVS
PROTOCOL_TEXT: Displacement of [3H]ZM-241385 from human adenosine A2A receptor expressed in HEK293 cells
Assay type: cell-based
pKi: −log10 of the molar value.
READOUT_KIND: pKi

>>> df
                                 smiles_str                             target_entity  result_number
0  Cc1cc(C)n(-c2cc(NC(=O)COc3cccc(CCN(C)C)c3)nc(-c3ccc(C)o3)n2)n1  Adenosine receptor A2a (Homo sapiens, UniProt P29274)           9.30

a = Cc1cc(C)n(-c2cc(NC(=O)COc3cccc(F)c3)nc(-c3ccc(C)o3)n2)n1
b = Cc1cc(C)n(-c2cc(NC(=O)COc3ccccc3CN(C)C)nc(-c3ccc(C)o3)n2)n1
c = Cc1ccc(-c2nc(NC(=O)COc3cccc(Cl)c3)cc(-c3nccs3)n2)o1
Exercise: Please list these compounds in decreasing order of pKi. Output the labels ranked as instructed.
Solution: b, a, c

###

TARGET_ENTITY: Adenosine receptor A1 (Homo sapiens)
PROTOCOL_TEXT: Displacement of [3H]DPCPX from human adenosine A1 receptor expressed in HEK293 cells
Assay type: cell-based
pKi: −log10 of the molar value.
READOUT_KIND: pKi

a = Cc1ccc(OCC(=O)Nc2cc(-c3nccs3)nc(-c3ccc(C)o3)n2)cc1
b = CCNCc1cccc(OCC(=O)Nc2cc(-n3nc(C)cc3C)nc(-c3ccc(C)o3)n2)c1
c = COc1ccc(OCC(=O)Nc2cc(-n3nc(C)cc3C)nc(-c3ccc(C)o3)n2)c(CN(C)C)c1
Exercise: From the items above, give an ordering by pKi that starts at the lowest reported number. Output the labels ranked as instructed.
Solution: a, c, b

A = Cc1cc(C)n(-c2cc(NC(=O)COc3cccc(CCN(C)C)c3)nc(-c3ccc(C)o3)n2)n1
B = Cc1cc(C)n(-c2cc(NC(=O)COc3cc(F)cc(CN4CCOCC4)c3)nc(-c3ccc(C)o3)n2)n1
Exercise: When the recorded pKi values are compared, which is smaller: that of A or that of B ? Field: selected label. Fill in the label of the entry you choose.
Solution: B
(B: 6.32, A: 7.11)

###

TARGET_ENTITY: Adenosine receptor A1 (Homo sapiens, UniProt P30542)
PROTOCOL_TEXT: Displacement of [3H]DPCPX from human adenosine A1 receptor expressed in HEK293 cells
Type: cell-based
READOUT_KIND: Ki (nM)

Previously resolved entries follow.
>>> print(df.to_string())
                                 smiles_str                             target_entity  result_number
0  Cc1cc(OCC(=O)Nc2cc(-n3nc(C)cc3C)nc(-c3ccc(C)o3)n2)cc(C)n1  Adenosine receptor A1 (Homo sapiens, UniProt P30542)            740
1  COc1cc(OCC(=O)Nc2cc(-n3nc(C)cc3C)nc(-c3ccc(C)o3)n2)ccc1CN(C)C  Adenosine receptor A1 (Homo sapiens, UniProt P30542)            150

I = Cc1cc(C)n(-c2cc(NC(=O)COc3cc(F)cc(CN4CCCC4)c3)nc(-c3ccc(C)o3)n2)n1
II = Cc1cc(C)n(-c2cc(NC(=O)COc3cccc(F)c3)nc(-c3ccc(C)o3)n2)n1
III = Cc1ccc(OCC(=O)Nc2cc(-n3nc(C)cc3C)nc(-c3ccc(C)o3)n2)c(CN(C)C)c1
IV = Cc1cc(C)n(-c2cc(NC(=O)COc3cccc(CN(C)C)c3)nc(-c3ccc(C)o3)n2)n1
Exercise: Please list these in order of increasing Ki. Thank you! Output the labels ranked as instructed.
Solution: IV, I, III, II

###

TARGET_ENTITY: Adenosine receptor A1 (Homo sapiens)
Sequence (P30542 whole entry): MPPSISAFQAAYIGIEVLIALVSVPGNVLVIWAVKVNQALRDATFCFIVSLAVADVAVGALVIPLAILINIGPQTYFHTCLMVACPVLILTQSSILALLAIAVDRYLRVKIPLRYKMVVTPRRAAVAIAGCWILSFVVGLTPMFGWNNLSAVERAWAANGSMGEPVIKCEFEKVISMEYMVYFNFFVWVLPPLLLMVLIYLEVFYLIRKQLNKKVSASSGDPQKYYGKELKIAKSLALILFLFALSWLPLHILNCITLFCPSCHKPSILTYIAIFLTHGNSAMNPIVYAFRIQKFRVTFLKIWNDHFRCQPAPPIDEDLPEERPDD
PROTOCOL_TEXT: Displacement of [3H]DPCPX from human adenosine A1 receptor expressed in HEK293 cells
Format: cell-based
pKi: −log10 of the molar value.
READOUT_KIND: pKi

Previously resolved entries follow.
>>> print(df.to_string())
                                 smiles_str                         target_entity  result_number
0  Cc1cc(C)n(-c2cc(NC(=O)COc3cccc(CN4CCOCC4)c3)nc(-c3ccc(C)o3)n2)n1  Adenosine receptor A1 (Homo sapiens)           6.22
1  Cc1cc(C)n(-c2cc(NC(=O)COc3cccc(CCN4CCOCC4)c3)nc(-c3ccc(C)o3)n2)n1  Adenosine receptor A1 (Homo sapiens)           6.27

A = COc1cc(CN(C)C)ccc1OCC(=O)Nc1cc(-n2nc(C)cc2C)nc(-c2ccc(C)o2)n1
B = Cc1cc(C)n(-c2cc(NC(=O)COc3ccccc3CN(C)C)nc(-c3ccc(C)o3)n2)n1
Exercise: When the recorded pKi values are compared, which is smaller: that of A or that of B ? Field: selected label. Fill in the label of the entry you choose.
Solution: B
(B: 6.57, A: 7.00)
